# protocolSummary: inhibition of 3D7 malaria parasite growth – strain 3D7 (AID 2306);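 further: 0% = DMSO wells and 100% = chloroquine plus artemisinin control wells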
# settings: P. falciparum 3D7 erythrocytic growth, LDH absorbance, 72 h; at 2 µM; stronger effect = higher value
recordedMetric: growth inhibition (%)
One number for each entry, in %.

INSERT INTO measurements (compound, recordedmetric, reported) VALUES
  ('Nc1cc(C=Cc2ccc(O)cc2)nc2ccccc12', 'growth inhibition', 100),
  ('COc1cc(C=C(C2=NC(=O)CS2)c2nc3cccnc3n2C)ccc1O', 'growth inhibition', 89),
  ('CCN1CCN(c2cc(C)c3cc(NC(=O)c4ccc(C(C)(C)C)cc4)ccc3n2)CC1', 'growth inhibition', 85),
  ('CCC[C@@H]([C@@H](CC1CCCCC1)C(=O)N[C@H](C(=O)Nc1ccccn1)[C@H](C)CC)N(O)C=O', 'growth inhibition', 96),
  ('O=C(NN=Cc1nc2ccccc2[nH]1)c1cccc([N+](=O)[O-])c1', 'growth inhibition', 99),
  ('Nc1ccc(-c2nc3cc(C4=N[C@H]5CCCC[C@H]5N4)ccc3o2)cc1[N+](=O)[O-]', 'growth inhibition', 95),
  ('O=C(Nc1cccc(-c2nn3ccccc3c2-c2ccnc(Nc3ccc(-c4cc[nH]n4)cc3)n2)c1)c1c(F)cccc1F', 'growth inhibition', 98),
  ('c1cc2nc(CCCCCc3nc4ccc(C5=N[C@@H]6CCCC[C@@H]6N5)cc4[nH]3)[nH]c2cc1C1=N[C@@H]2CCCC[C@@H]2N1', 'growth inhibition', 96);

Parameter requested: growth inhibition. Apply to each item below.
1. CC[C@H](C)[C@H](NC(=O)[C@H](CC1CCCCC1)[C@H](CC)N(O)C=O)C(=O)Nc1ccccn1
2. O=[N+]([O-])c1ccc(-c2nc3ccc(C4=N[C@H]5CCCC[C@H]5N4)cc3[nH]2)cc1
3. NC(N)=NN=Cc1c[nH]c2ccc(-c3ccccc3)cc12
4. COc1ccc(Nc2nc(NN=Cc3ccc(O)cc3)nc(Nc3ccc([N+](=O)[O-])cc3)n2)cc1
5. Oc1cccc(-c2nc(-c3cccc(I)c3)c(-c3ccc(-c4nc(-c5cccc(O)c5)[nH]c4-c4cccc(I)c4)cc3)[nH]2)c1
6. CCC[C@@H](C(=O)NCCc1cccc(OC)c1)N1C(=O)c2c(ccc(OC)c2OC)C1C(=O)Nc1c(C)cccc1C (some centres not stated)
7. CCC[C@@H]([C@@H](CC1CCCCC1)C(=O)N[C@H](C(=O)Nc1nccc(N)n1)C(C)(C)C)N(O)C=O
8. Oc1ccc2ccccc2c1C=NNc1nc(Nc2ccccc2)nc(Nc2ccccc2)n1

stdout:
1: 96; 2: 100; 3: 84; 4: 93; 5: 96; 6: 94; 7: 96; 8: 99

* * *

# protocolSummary: viability loss with induced miR-34 in A549 – imaging, A549 dox-inducible miR-34, nuclei and caspase counts, primary screen (AID 1347080)
# settings: A549 miR-34 inducible, Hoechst nuclei count, 48 h; measured here: relative caspase fold change +Dox/-Dox
Answer each item with its documented fold change.
Answers are plain numbers.

Field: example entries. Status: answers known.
INSERT INTO results (molecule, recordedmetric, reported) VALUES
  ('C[C@H]1[C@H](C)CC[C@]2(C(=O)O[C@@H]3O[C@H](COC4O[C@H](CO)[C@@H](OC5O[C@@H](C)[C@H](O)[C@@H](O)[C@H]5O)[C@H](O)[C@H]4O)[C@@H](O)[C@H](O)[C@H]3O)CC[C@]3(C)C(=CC[C@@H]4[C@@]5(C)C[C@@H](O)[C@H](O)[C@@](C)(CO)C5CC[C@]43C)[C@H]12 (stereo partly drawn)', 'fold change', 0.577),
  ('CC(=O)O[C@@]1(C(C)=O)CC[C@H]2[C@@H]3C=C(C)C4=CC(=O)CC[C@]4(C)[C@@H]3CC[C@@]21C', 'fold change', 0.828);

Moving on to the next molecule.
stdin: I'd like to know its fold change. The molecule in question is Cc1ccc2c(-c3ncnc4scc(C)c34)cccc2n1
stdout: 1.37

* * *

For each entry below, report its z-score value.
# protocolSummary: MELAS cybrid and Rieske KO viability enhancers – cell-based, MELAS cybrids, Rieske KO mouse fibroblasts, CellTiter-Glo, primary screen (AID 1508586);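 further: z relative to plate mean and SD of compound and empty wells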
# settings: Rieske KO mouse fibroblast survival, low glucose, CellTiter-Glo 72 h
Answers are plain numbers.

INSERT INTO results (compound, reported) VALUES
  ('COc1cc(C2c3cc4c(cc3C(O[C@@H]3O[C@@H]5COC(C)O[C@H]5C(O)C3O)[C@H]3COC(=O)[C@H]23)OCO4)cc(OC)c1O (stereo partly specified)', -0.559);

# map each compound to its z-score
1. CCn1ccnc1CN(C)C(=O)c1cc(-c2cnc(N)nc2)nc2cc(C)ccc12
2. CCn1nc(C(=O)N2CCCCC2)c2c1CCC(NCc1ccc3c(c1)OCO3)C2 (stereo unspecified)
3. CCOC(=O)N1CCC(NC2CCc3c(c(C(=O)N(C)C)nn3Cc3ccccc3)C2)CC1 (stereo unspecified)
4. CN1CCCc2cc(C(=O)N3CC(=O)N(Cc4ccccc4)CC(OCc4ccccn4)C3)ccc21 (stereo unspecified)
5. CC(=O)c1cccc(-c2cc3c(n(C)c2=O)CCN(C(=O)c2ccc4[nH]c5c(c4c2)CCCC5)C3)c1

stdout:
1: 0.497; 2: 0.426; 3: 0.468; 4: -0.731; 5: -0.491

# per-item lookup of z-score; items listed below
1. CNC1C(O)C(NC)[C@H]2O[C@@]3(O)C(=O)CC(C)O[C@H]3O[C@@H]2C1O (stereo partly specified)
2. O=C(COc1ccc(Cl)cc1)Nc1ccccc1C(=O)O
3. COc1ccc(CN(C)C(=O)Nc2nc(-c3ccccc3)ns2)cc1
4. CC(C)(C)C(=O)Nc1ccc2c(c1)CC(=O)N2
5. O=c1c2nccnc2ncn1Cc1scnc1-c1ccccc1
6. O=C(C=Cc1ccc2ccccc2n1)c1ccncc1
7. O=C(O)c1cc(Br)ccc1NS(=O)(=O)c1ccc(Cl)cc1

stdout:
[0.762, -0.206, 0.35, 0.0111, -0.294, 1.5, -0.343]

Please go through the list and note z-score for each compound.
1. Cn1cc(C=CC(=O)c2cccc(F)c2)cc1C=CC(=O)NO
2. CCC(C)C(=O)OC1CC(O)C=C2C=CC(C)C(CCC(O)CC(O)CC(=O)O)[C@H]21 (stereo partly specified)

stdout:
1: 0.68; 2: -0.0533

Please go through the list and note z-score for each compound.
1. C=CC(=O)N1CCCC(n2nc(-c3ccc(Oc4ccccc4)cc3)c3c(N)ncnc32)C1 (stereo unspecified)
2. Cc1cc(NC(=O)Cn2ncc3cc(-c4ccc(F)c(F)c4)ccc32)n(C)n1
3. CCn1ncc(NC(=O)Cn2nc(C)c(-c3ccc(-n4cccn4)cc3)c2C)n1
4. CCOC(=O)C(CCc1ccccc1)NC(C)C(=O)N1C(=O)N(C)CC1C(=O)O (stereo unspecified)
5. CC1(C)S[C@H]2C(NC(=O)C(N)c3ccc(O)cc3)C(=O)N2C1C(=O)O (stereo partly specified)
6. Nc1nonc1-c1nc2cnccc2n1C1CC1

stdout:
-0.517
-0.0382
1.3
-0.0366
-0.0136
-0.585

* * *

I'd appreciate it if you could supply viability values for the items below.
# protocolSummary: drug combination growth inhibition, ovarian cancer – cell-based, oncology-focused library, rucaparib conditional, profiling panel (AID 1508598)
# settings: patient-derived ovarian cancer cells, CellTiter-Glo viability, 144 h; at 0.00488 µM; OCI-C5x cells; without rucaparib; stronger effect = lower value
One number for each entry, in %.

These solved cases illustrate the format of a correct answer.
INSERT INTO measurements (molecule, recordedmetric, reported) VALUES
  ('Cc1cc([N+](=O)[O-])ccc1NS(=O)(=O)c1cc(Cl)ccc1Cl', 'viability', 111),
  ('CO[C@H]1C[C@H]2CC[C@@H](C)[C@@](O)(O2)C(=O)C(=O)N2CCCC[C@H]2C(=O)O[C@H]([C@H](C)C[C@@H]2CC[C@H](OC(=O)C(C)(CO)CO)[C@H](OC)C2)CC(=O)[C@H](C)/C=C(\C)[C@@H](O)[C@@H](OC)C(=O)[C@H](C)C[C@H](C)/C=C/C=C/C=C/1C', 'viability', 91.6),
  ('Cc1cc(NC(=O)c2cccc(NC(=O)/C=C/CN(C)C)c2)ccc1Nc1nccc(-c2cccnc2)n1', 'viability', 160);

Go through the items and report each one's viability.
1. CCCCCOC(=O)Nc1nc(=O)n([C@@H]2O[C@H](C)[C@@H](O)C2O)cc1F (stereo partly drawn)
2. CC(=O)O[C@@]1(C(C)=O)CC[C@H]2[C@@H]3C[C@H](C)C4=CC(=O)CC[C@]4(C)[C@@H]3CC[C@@]21C
3. CO[C@H]1C[C@@H]2CC[C@@H](C)[C@@](O)(O2)C(=O)C(=O)N2CCCC[C@H]2C(=O)O[C@H]([C@H](C)C[C@@H]2CC[C@@H](O)[C@H](OC)C2)CC(=O)[C@H](C)/C=C(\C)[C@@H](O)[C@H](OC)C(=O)[C@H](C)C[C@H](C)/C=C/C=C/C=C/1C
4. CCC(C)(C)C(=O)O[C@@H]1C[C@@H](C)C=C2C=C[C@H](C)[C@@H](CC[C@@H]3C[C@@H](O)CC(=O)O3)[C@H]21
5. COc1cc2c(cc1O)CC[C@@H]1[C@H]2CC[C@]2(C)[C@H](O)CC[C@@H]12
6. CC#C[C@@]1(O)CC[C@H]2[C@@H]3CCC4=CC(=O)CCC4=C3[C@H](c3ccc(N(C)C)cc3)C[C@@]21C
7. CC(C)NCCCn1c(Sc2cc3c(cc2I)OCO3)nc2c(N)ncnc21
8. CCOC(=O)NCCCC(=O)NCCc1ccccc1

stdout:
1: 126; 2: 119; 3: 95.5; 4: 110; 5: 118; 6: 108; 7: 107; 8: 110

Take each entry in turn and give its viability.
1. COc1cc([C@H]2c3cc4c(cc3[C@@H](O[C@@H]3O[C@@H]5CO[C@@H](C)O[C@H]5[C@H](O)[C@@H]3O)[C@H]3COC(=O)[C@H]23)OCO4)cc(OC)c1O
2. CO[C@H]1C[C@@H]2CC[C@@H](C)[C@@](O)(O2)C(=O)C(=O)N2CCCC[C@H]2C(=O)O[C@H]([C@@H](C)C[C@@H]2CC[C@@H](OCCO)[C@H](OC)C2)CC(=O)[C@H](C)/C=C(\C)[C@H](O)[C@@H](OC)C(=O)[C@H](C)C[C@H](C)/C=C/C=C/C=C/1C

stdout:
[100, 115]
